The entries below come with measured z-score values attached.
Experiment: PSAC antagonists in infected red cells, primary screen, cell-based, P. falciparum Indochina, OD700, 1 h (AID 1154)
Conditions: P. falciparum Indochina infected RBC osmotic lysis, higher = more signal, called active from +8 up or from −8 down
The source made the active and inactive calls.

Illustrative cases are given below, each with its answer.
{"smiles record": "O=C1C2=CC[C@H]3C(=O)N(Cc4ccccc4)C(=O)[C@H]3[C@H]2[C@H](O)[C@@H]2O[C@H]12", "z-score": "0.472 (inactive)"}
{"smiles record": "O=C1C[C@@H](O)[C@@H](O)[C@@H]2[C@@H]3C(=O)N(Cc4ccccc4)C(=O)[C@@H]3CC[C@H]12", "z-score": "1.56 (inactive)"}
{"smiles record": "CC(C)[C@@H](OCc1ccccc1)[C@H](C)C=NOC[C@@H](O)[C@H]1O[C@@H]2OC(C)(C)O[C@@H]2[C@H]1O", "z-score": "0.0248 (inactive)"}

Turning now to a further record.
Lab book: z-score of `O=C1C=C[C@@H](O)[C@@H]2[C@@H]3C(=O)N(Cc4ccccc4)C(=O)[C@@H]3CC[C@@H]12` noted as 0.09 (inactive)
